So I've got a bunch of compounds here, and I need their IC50 values.
- tested.target: Interleukin-1 receptor-associated kinase 4 (Homo sapiens)
- experimental.protocol: Inhibition of IRAK4-dependent TLR4 signaling in human THP1-XBlue cells containing NF-kappaB-inducible SEAP reporter gene assessed as inhibition of LPS-EK-induced TLR4 activation incubated at 37 degC for 1 hr by spectrophotometry
- Type: cell-based, THP-1
Answers are plain numbers, in nM.

Reference set, count: 4
chem.smiles	tested.target	IC50 (nM)
Cc1cc(Nc2ncc(-c3nc(-c4ccccc4)cs3)c(N[C@@H]3C[C@H](CO)[C@@H](O)[C@H]3O)n2)ccn1	Interleukin-1 receptor-associated kinase 4 (Homo sapiens)	94
CC(C)Oc1cc(Nc2ncc(-c3ccc4ccccc4n3)c(N[C@@H]3C[C@H](CO)[C@@H](O)[C@H]3O)n2)ccn1	Interleukin-1 receptor-associated kinase 4 (Homo sapiens)	216
COc1cc(Nc2ncc(-c3ccc4ccccc4n3)c(N[C@@H]3C[C@H](CO)[C@@H](O)[C@H]3O)n2)ccn1	Interleukin-1 receptor-associated kinase 4 (Homo sapiens)	25
Cc1cc(Nc2ncc(-c3nc(-c4ccccc4)cs3)c(N[C@@H]3C[C@H](CO)[C@@H](O)[C@H]3O)n2)cc(C)n1	Interleukin-1 receptor-associated kinase 4 (Homo sapiens)	87

Could you report IC50 for every entry in the following list?
1. Cc1cc(Nc2ncc(-c3ccc4ccccc4n3)c(N[C@@H]3C[C@H](CO)[C@@H](O)[C@H]3O)n2)cc(C)n1
2. OC[C@H]1C[C@@H](Nc2nc(Nc3ccnc(OC4CC4)c3)ncc2-c2ccc3ccccc3n2)[C@H](O)[C@@H]1O
3. Cc1cc(Nc2cc(N[C@@H]3C[C@H](CO)[C@@H](O)[C@H]3O)c(-c3nc4ccccc4s3)cn2)cc(C)n1

55
341
3450

====

- tested.target: Cytochrome P450 2C9 (Homo sapiens, UniProt P11712)
- Sequence (P11712 whole entry): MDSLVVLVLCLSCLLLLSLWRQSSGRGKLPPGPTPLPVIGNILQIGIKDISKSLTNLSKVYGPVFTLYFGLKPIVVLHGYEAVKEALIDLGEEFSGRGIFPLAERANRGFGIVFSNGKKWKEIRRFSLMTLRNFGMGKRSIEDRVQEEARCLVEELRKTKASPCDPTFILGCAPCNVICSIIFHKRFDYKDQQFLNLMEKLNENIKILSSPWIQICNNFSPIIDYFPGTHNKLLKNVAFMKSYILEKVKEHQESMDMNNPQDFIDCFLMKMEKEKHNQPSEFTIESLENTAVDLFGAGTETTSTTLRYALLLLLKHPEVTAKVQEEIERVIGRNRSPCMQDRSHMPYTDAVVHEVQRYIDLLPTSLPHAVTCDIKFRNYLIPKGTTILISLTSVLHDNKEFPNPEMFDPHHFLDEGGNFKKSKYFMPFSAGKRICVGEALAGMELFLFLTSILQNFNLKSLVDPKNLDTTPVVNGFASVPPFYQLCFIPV
- experimental.protocol: Inhibition of CYP2C9 (unknown origin)
- Type: ADME
quantity.measured: IC50

Reference set, count: 2
chem.smiles	tested.target	result
Cc1cc(Nc2cc(N[C@@H]3C[C@H](CO)[C@@H](O)[C@H]3O)c(-c3nc4ccccc4s3)cn2)cc(C)n1	Cytochrome P450 2C9 (Homo sapiens, UniProt P11712)	> 50 µM
OC[C@H]1C[C@@H](Nc2nc(Nc3ccnc(OC4CC4)c3)ncc2-c2ccc3ccccc3n2)[C@H](O)[C@@H]1O	Cytochrome P450 2C9 (Homo sapiens, UniProt P11712)	> 50 µM

Moving on to the next compound.
Which IC50 value belongs to CC(C)Oc1cc(Nc2ncc(-c3ccc4ccccc4n3)c(N[C@@H]3C[C@H](CO)[C@@H](O)[C@H]3O)n2)ccn1 ? > 50 µM

====

- experimental.protocol: Solubility in pH 7 solution
- Type: physicochemical
The threshold is inclusive: solubility of exactly 20 µM counts as Criterion met; values below receive Criterion not met.

chem.smiles	label.value
CC(C)Oc1cc(Nc2ncc(-c3ccc4ccccc4n3)c(N[C@@H]3C[C@H](CO)[C@@H](O)[C@H]3O)n2)ccn1	Criterion met
Cc1cc(Nc2ncc(-c3nc(-c4ccccc4)cs3)c(N[C@@H]3C[C@H](CO)[C@@H](O)[C@H]3O)n2)cc(C)n1	Criterion not met
Cc1cc(Nc2ncc(-c3ccc4ccccc4n3)c(N[C@@H]3C[C@H](CO)[C@@H](O)[C@H]3O)n2)cc(C)n1	Criterion met
Cc1cc(Nc2ncc(-c3nc(-c4ccccc4)cs3)c(N[C@@H]3C[C@H](CO)[C@@H](O)[C@H]3O)n2)ccn1	Criterion not met
COc1cc(Nc2ncc(-c3ccc4ccccc4n3)c(N[C@@H]3C[C@H](CO)[C@@H](O)[C@H]3O)n2)ccn1	Criterion met

Is reported solubility greater than or equal to 20 µM here: Cc1cc(Nc2cc(N[C@@H]3C[C@H](CO)[C@@H](O)[C@H]3O)c(-c3nc4ccccc4s3)cn2)cc(C)n1 Criterion not met

Is reported solubility greater than or equal to 20 µM here: OC[C@H]1C[C@@H](Nc2nc(Nc3ccnc(OC4CC4)c3)ncc2-c2ccc3ccccc3n2)[C@H](O)[C@@H]1O Criterion met

====

- tested.target: Interleukin-1 receptor-associated kinase 4 (Homo sapiens, UniProt Q9NWZ3)
- experimental.protocol: Inhibition of human IRAK4 (unknown origin)
Please use Met for IC50 under 20 nM and Not met for everything else, ties included.

chem.smiles	label.value
COc1cc(Nc2ncc(-c3nc(-c4ccccc4)cs3)c(N[C@@H]3C[C@H](CO)[C@@H](O)[C@H]3O)n2)ccn1	Not met
OC[C@H]1C[C@@H](Nc2nc(Nc3ccnc(OC4CC4)c3)ncc2-c2ccc3ccccc3n2)[C@H](O)[C@@H]1O	Not met
OC[C@H]1C[C@@H](Nc2nc(Nc3cccnc3)ncc2-c2nc3ccncc3s2)[C@H](O)[C@@H]1O	Met

Moving on to the next molecule.
# check: IC50 < 20 nM for OC[C@H]1C[C@@H](Nc2nc(Nc3cncnc3)ncc2-c2nc3cnccc3s2)[C@H](O)[C@@H]1O Met

====

- tested.target: Interleukin-1 receptor-associated kinase 4 (Homo sapiens, UniProt Q9NWZ3)
- Sequence (Q9NWZ3 whole entry): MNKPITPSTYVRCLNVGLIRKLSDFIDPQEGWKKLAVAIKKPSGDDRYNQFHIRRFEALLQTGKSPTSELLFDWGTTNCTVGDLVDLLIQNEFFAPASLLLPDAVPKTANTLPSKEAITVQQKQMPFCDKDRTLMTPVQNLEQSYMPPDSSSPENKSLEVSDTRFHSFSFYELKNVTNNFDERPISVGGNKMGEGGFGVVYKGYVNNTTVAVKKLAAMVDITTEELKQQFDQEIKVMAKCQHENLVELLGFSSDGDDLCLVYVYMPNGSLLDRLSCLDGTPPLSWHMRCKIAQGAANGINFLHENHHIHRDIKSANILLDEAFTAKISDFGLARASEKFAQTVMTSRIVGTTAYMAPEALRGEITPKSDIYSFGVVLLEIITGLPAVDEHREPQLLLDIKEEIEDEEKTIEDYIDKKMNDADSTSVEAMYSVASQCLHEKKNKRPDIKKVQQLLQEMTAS
- experimental.protocol: Inhibition of human IRAK4 (unknown origin)
quantity.measured: IC50 (nM)
Give bare numbers, in nM.

Reference set, count: 3
chem.smiles	result.unit	IC50
Cc1cc(Nc2ncc(-c3nc4ccncc4s3)c(N[C@@H]3C[C@H](CO)[C@@H](O)[C@H]3O)n2)ccn1	nM	12
COc1cc(Nc2ncc(-n3cccn3)c(N[C@@H]3C[C@H](CO)[C@@H](O)[C@H]3O)n2)ccn1	nM	6010
OC[C@H]1C[C@@H](Nc2nc(Nc3cccnc3)ncc2-c2nc3cnccc3s2)[C@H](O)[C@@H]1O	nM	11

Moving on to the next compound.
Which IC50 value belongs to OC[C@H]1C[C@@H](Nc2nc(NC3CC3)ncc2-c2nc3cnccc3s2)[C@H](O)[C@@H]1O ? 647

These entries and their values trace back to ChEMBL document CHEMBL3600286.
